- measured.on: Human mTOR (FLAG-TOR) (Homo sapiens, UniProt P42345)
- Sequence (P42345 1360-2549 limits assumed): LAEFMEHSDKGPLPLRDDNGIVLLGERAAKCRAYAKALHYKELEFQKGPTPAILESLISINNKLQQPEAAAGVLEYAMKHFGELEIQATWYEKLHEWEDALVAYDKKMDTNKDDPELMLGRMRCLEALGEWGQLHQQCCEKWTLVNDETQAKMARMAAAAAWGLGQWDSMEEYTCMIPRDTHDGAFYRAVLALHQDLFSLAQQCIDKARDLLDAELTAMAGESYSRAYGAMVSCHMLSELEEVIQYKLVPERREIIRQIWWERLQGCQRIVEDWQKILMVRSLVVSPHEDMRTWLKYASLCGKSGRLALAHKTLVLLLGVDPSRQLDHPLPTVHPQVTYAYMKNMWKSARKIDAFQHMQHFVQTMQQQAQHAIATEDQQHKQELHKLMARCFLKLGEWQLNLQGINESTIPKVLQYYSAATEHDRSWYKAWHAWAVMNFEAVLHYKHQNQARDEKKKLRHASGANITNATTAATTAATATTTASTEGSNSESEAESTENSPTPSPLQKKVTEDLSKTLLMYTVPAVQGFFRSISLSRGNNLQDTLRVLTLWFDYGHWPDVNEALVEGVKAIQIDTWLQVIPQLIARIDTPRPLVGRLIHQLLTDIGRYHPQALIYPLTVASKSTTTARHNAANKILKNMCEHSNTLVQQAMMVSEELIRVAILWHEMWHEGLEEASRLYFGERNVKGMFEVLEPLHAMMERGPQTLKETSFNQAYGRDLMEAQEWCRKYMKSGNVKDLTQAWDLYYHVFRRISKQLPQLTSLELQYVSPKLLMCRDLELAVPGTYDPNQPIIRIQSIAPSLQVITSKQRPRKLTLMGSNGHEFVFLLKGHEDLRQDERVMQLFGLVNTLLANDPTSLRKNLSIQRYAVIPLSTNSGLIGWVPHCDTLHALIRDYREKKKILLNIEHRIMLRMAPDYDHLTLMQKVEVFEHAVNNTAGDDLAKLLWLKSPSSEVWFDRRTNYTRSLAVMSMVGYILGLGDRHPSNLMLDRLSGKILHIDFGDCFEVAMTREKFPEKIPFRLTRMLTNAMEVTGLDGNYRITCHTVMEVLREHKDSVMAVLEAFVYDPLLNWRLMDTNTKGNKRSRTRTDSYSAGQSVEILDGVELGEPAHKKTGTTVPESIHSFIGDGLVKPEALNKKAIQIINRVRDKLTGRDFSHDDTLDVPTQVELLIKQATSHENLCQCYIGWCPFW
- protocol.summary: mTOR kinase assay (DELFIA format, purified enzyme)
- Type: biochemical
- cond: read-out: IC50 mTOR
observation.type: pIC50
// pIC50: -log10(molar conc.)

Example entries and their recorded answers appear below.
• CNCCNC(=O)Nc1ccc(-c2nc(OC3CCOCC3)nc(N3CCOCC3)n2)cc1 [Example 64] = 5.82
• CC(C)c1nc(-c2ccc(NC(=O)Nc3ccc(C(=O)Nc4cccnc4)cc3)cc2)nc(N2CCOCC2)n1 [Example 310] = 8.23
• CN1CCN(C(=O)c2ccc(NC(=O)Nc3ccc(-c4nc(N5CCOCC5)nc(N5C6COCC5COC6)n4)cc3)cc2)CC1 [Example 769] = 9.64

query: For COCCNC(=O)c1ccc(NC(=O)Nc2ccc(-c3nc(N4CCOC[C@@H]4C)nc(N4CCOC[C@@H]4C)n3)cc2)cc1 [Example 639] , what is its reported pIC50?
result: 9.00

query: For CN(C)C(=O)c1ccc(NC(=O)Nc2ccc(-c3nc(N4CCOCC4)nc(N4C5CCC4COC5)n3)cc2)cc1 [Example 695] , what is its reported pIC50?
result: 9.55

* * *

The reader will find reported IC50 values listed item by item below.
- measured.on: UniProtKB P42336
- Sequence (P42336 whole entry, species assumed): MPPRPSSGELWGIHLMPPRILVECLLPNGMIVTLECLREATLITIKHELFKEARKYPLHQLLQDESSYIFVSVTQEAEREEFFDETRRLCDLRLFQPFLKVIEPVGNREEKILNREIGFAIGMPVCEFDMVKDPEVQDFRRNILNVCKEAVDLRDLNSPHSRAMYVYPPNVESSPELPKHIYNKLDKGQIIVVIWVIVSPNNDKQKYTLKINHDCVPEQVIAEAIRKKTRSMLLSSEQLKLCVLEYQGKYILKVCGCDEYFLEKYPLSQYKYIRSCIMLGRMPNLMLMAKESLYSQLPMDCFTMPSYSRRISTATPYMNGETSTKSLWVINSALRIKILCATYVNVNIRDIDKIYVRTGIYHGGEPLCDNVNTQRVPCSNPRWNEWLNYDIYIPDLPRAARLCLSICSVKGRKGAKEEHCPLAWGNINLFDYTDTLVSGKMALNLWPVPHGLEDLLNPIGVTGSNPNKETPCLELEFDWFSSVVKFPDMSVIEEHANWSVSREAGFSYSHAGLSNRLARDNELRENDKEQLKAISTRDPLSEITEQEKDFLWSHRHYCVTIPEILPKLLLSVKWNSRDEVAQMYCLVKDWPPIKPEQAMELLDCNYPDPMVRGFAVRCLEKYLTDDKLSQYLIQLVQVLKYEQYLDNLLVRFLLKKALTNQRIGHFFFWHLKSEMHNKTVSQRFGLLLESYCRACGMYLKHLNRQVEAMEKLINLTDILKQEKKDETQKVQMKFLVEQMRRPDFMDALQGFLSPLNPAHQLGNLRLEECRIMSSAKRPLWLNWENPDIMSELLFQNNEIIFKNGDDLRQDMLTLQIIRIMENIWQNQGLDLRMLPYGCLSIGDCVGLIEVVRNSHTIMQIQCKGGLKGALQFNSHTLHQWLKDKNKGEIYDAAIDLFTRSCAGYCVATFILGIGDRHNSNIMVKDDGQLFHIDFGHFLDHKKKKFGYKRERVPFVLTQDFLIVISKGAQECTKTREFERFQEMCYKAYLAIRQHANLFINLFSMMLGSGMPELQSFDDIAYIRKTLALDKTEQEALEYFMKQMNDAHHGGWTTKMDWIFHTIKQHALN
- Sequence (P27986 whole entry partner, species assumed): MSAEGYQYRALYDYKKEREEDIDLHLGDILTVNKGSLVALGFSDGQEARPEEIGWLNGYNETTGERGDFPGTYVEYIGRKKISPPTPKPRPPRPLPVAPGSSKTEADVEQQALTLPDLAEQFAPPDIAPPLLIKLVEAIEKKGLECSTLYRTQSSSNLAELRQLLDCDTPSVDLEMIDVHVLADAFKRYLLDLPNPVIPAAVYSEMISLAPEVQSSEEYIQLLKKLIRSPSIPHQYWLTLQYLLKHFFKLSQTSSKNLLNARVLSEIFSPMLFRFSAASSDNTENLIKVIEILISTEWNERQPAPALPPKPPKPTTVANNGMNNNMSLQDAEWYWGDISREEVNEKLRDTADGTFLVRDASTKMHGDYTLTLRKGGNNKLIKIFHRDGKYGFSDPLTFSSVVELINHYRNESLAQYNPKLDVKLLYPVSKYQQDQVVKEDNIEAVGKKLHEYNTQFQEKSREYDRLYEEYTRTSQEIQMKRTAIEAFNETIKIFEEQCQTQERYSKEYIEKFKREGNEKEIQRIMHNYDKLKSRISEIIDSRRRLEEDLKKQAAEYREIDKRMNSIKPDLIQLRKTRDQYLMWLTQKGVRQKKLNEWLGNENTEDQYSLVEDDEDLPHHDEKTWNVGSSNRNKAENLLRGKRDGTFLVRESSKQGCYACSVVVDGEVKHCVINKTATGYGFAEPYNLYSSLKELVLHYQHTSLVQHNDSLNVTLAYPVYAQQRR
- protocol.summary: PI3K-alpha fluorescence polarization assay
- cond: read-out: IC50 PI3Kα
The reply should contain only the number, in nM.

query: For CN(C)C1CCN(C(=O)c2ccc(NC(=O)Nc3ccc(-c4nc(-c5cccs5)nc(N5CCOCC5)n4)cc3)cc2)CC1 , what is its reported IC50?
result: 3.5

query: For O=C(Nc1ccc(C(=O)NCCN2CCCCC2)cc1)Nc1ccc(-c2nc(N3CCOCC3)nc(N3CCOCC3)n2)cc1 , what is its reported IC50?
result: 0.6

query: For O=C(Nc1ccc(-c2nc(NCCO)nc(N3CC4CCC(C3)O4)n2)cc1)Nc1cccnc1 , what is its reported IC50?
result: 868

query: For CCN1CCN(C(=O)c2ccc(NC(=O)Nc3ccc(-c4nc(N5CCOCC5)nc(N5CCCN(C(C)C)CC5)n4)cc3)cc2)CC1 , what is its reported IC50?
result: 34.3

* * *

The reader will find reported pIC50 values listed item by item below.
- measured.on: Human mTOR (FLAG-TOR) (Homo sapiens, UniProt P42345)
- protocol.summary: mTOR kinase assay (DELFIA format, purified enzyme)
- Assay type: biochemical
- cond: read-out: IC50 mTOR
// pIC50: -log10(molar conc.)

- Cc1ccc(NC(=O)Nc2ccc(-c3nc(N4CCOCC4)nc(N4CCOCC4)n3)cc2)cc1: 8.20
- CCS(=O)(=O)N1CCN(c2nc(-c3ccc(NC(=O)Nc4ccc(C(=O)NCCCN(C)C)cc4)cc3)nc(N3CCOCC3)n2)CC1: 8.15

Now for another entry.
query: For CC(C)Nc1nc(-c2ccc(NC(=O)Nc3ccc(CN4CCNCC4)cc3)cc2)nc(N2C3CCC2COC3)n1 , what is its reported pIC50?
result: 8.29

* * *

- measured.on: UniProt P42345
- protocol.summary: mTOR kinase assay (DELFIA format, purified enzyme)
- Type: biochemical
- cond: read-out: IC50 mTOR
The reader will find reported IC50 values listed item by item below.
The reply should contain only the number, in nM.

• CN(C)c1nc(-c2ccc(NC(=O)Nc3cccnc3)cc2)nc(N2CC3CCC(C2)O3)n1 [Example 192] = 43

query: For COC(=O)c1ccc(NC(=O)Nc2ccc(-c3nc(OC(C)C)nc(N4CCOCC4)n3)cc2)cc1 [Example 95] , what is its reported IC50?
result: 2.75

query: For CCc1nc(-c2ccc(NC(=O)Nc3ccc(C(=O)NCc4ccncc4)cc3)cc2)nc(N2CCOCC2)n1 [Example 321] , what is its reported IC50?
result: 16.5

query: For CN1CCC(Oc2nc(-c3ccc(NC(=O)Nc4ccncc4)cc3)nc(N3CCOCC3)n2)CC1 [Example 687] , what is its reported IC50?
result: 4.85

query: For O=C(Nc1ccncc1)Nc1ccc(-c2nc(C3=CCOCC3)nc(N3C4CCC3COC4)n2)cc1 [Example 404] , what is its reported IC50?
result: 0.69

query: For CC(C)Oc1nc(-c2ccc(NC(=O)Nc3ccc(N4CCN(C)CC4)cc3)cc2)nc(N2CC3CCC(C2)O3)n1 [Example 159] , what is its reported IC50?
result: 2

query: For COCCOc1nc(-c2ccc(NC(=O)Nc3ccc(C(=O)OC)cc3)cc2)nc(N2CCOCC2)n1 [Example 211] , what is its reported IC50?
result: 6

query: For Nc1ccc(-c2nc(N3CCOCC3)nc(N3CCC4(CC3)OCCO4)n2)cc1 [Example 129] , what is its reported IC50?
result: 2350
